targetOfAssay: DN-IV quality control recombinant protein (produced by the company) (dengue virus)
procedureText: BLI, antibody on AMC sensor
observationType: pKd
Expect pKd as a plain number equal to -log10 of the molar concentration.

Check out these entries, answers already filled in.
Mutation 1-29 (antibody, V domains shown) VH: EVQLQQPGPELVKPGASVKMSCKASGYTFTSYVIHWVRQKPGQGLEWIGYMNPYNDGIKYNEKFIGKAILTSDKSSSTAYMQLSSLTSEDSAVYYCTREGLFYVFDYWGQGTSVTVSS VL: QIVLTQSPAIMSASPGEKVTMTCSATSSISYMHWYQQKSGTSPKRWIYDSSKLASGVPVRFSGSGSGTSYSLTISSMEAEDAATYFCQWWRSDLPTFGAGTKLELKR    9.31
WT 1-5 (antibody, V domains shown) VH: EVQLQQPGPELVKPGASVKMSCKASGYTVTSYVIHWVRQKPGQGLEWIGYMNAYNDGLKYNDKFIGKAILTSDKSSSTAYMQLSSLTSEDSAVYYCTKEGLFYVFDYWGQGTSVTVSS VL: QIVLTQSPAIMSASPGEKVTMTCSGTSSVSYMHWYQQKSGTSPKRWIYDSSKLASPVPVRFSGSGSGTSYSLTISSMEAEDAATYFCQWWRSVLPTFGAGTKLELKR    7.24

// switching to the query binder
Q: Value lookup for pKd; key = Mutation 1-11 (antibody, V domains shown) VH: EVQLQQPGPELVKPGASVKMSCKASGYTFTSYVIHWVRQKPGQGLEWIGYMNPYNDGLKYNEKFIGKAILTSDKSSSTAYMQLSSLTSEDSAVYYCTKEGLFYVFDYWGQGTSVTVSS VL: QIVLTQSPAIMSASPGEKVTMTCSATSSVSYMHWYQQKSGTSPKRWIYDSSKLASGVPVRFSGSGSGTSYSLTISSMEAEDAATYFCQQWRSDLPTFGAGTKLELKR
Result: 9.14
